Known pIC50 of a selection of compounds
target: UniProt Q15118; experiment: Pyruvate dehydrogenase kinase; assay type: biochemical; conditions: PDK1 IC50 (μg/mL) ± SD, mean of two determinations
pIC50 is defined as minus the log10 of a concentration measured in mol/L.

Record excerpt, results attached:
N#Cc1c(N2C(=O)CCC2=O)sc2c1CCC(c1ccccc1)C2 (stereo not drawn) = 3.37
N#Cc1c(N)sc2c1CCC(c1ccccc1)C2 (stereo not drawn) = 3.65

Query: I would be grateful if you could share the reported pIC50 for CCOC(=O)Nc1sc2c(c1C#N)CCC(c1ccccc1)C2 (stereo not drawn) .
Reply: 3.52

====

target: Pyruvate Dehydrogenase Kinase-1 (PDK-1) (Homo sapiens); assay: Pyruvate dehydrogenase kinase; format: biochemical; settings: read-out: PDK-1 mean inhibitory % ± SD
Sequence (Q15118 29-436): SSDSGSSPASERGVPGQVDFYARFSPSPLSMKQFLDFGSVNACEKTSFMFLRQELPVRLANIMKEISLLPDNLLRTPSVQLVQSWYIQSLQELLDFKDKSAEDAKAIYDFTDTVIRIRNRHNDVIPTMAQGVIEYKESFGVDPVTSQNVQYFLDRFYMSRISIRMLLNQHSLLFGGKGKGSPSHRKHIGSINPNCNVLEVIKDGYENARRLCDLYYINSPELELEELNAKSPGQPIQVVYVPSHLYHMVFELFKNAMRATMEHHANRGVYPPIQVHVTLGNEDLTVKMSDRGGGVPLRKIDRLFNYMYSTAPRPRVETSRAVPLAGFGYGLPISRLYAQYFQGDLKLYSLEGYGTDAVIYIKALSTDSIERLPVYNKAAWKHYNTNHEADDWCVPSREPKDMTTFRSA
The following compounds are listed with their measured inhibition at 100 µg/mL values.
Form entry: value (%) — number only.

Worked examples, 5 compounds total:
N#Cc1c(N)sc2c1CCCC2 [1c] = 11.2
N#Cc1c(N)sc2c1CCC(c1ccccc1)C2 (stereo not shown) [compound 1b] = 87
CCOC(=O)c1c(NC(=O)c2cccs2)sc2c1CCC(c1ccccc1)C2 (stereo not shown) [3e] = 18.4
CN(C)C=Nc1sc2c(c1C#N)CCC(c1ccccc1)C2 (stereo not shown) [compound 9] = 36.5
CCOC(=O)c1c(NC(=O)CN2CCOCC2)sc2c1CCC(c1ccccc1)C2 (stereo not shown) [5a] = 41

Query: Give the measured inhibition at 100 µg/mL of COc1ccc(C=Nc2sc3c(c2C#N)CCCC3)cc1O [compound 11] .
Reply: 23.7

====

# inhibition at 100 µg/mL listing for each entry below
target: purified recombinant human LDHA protein (Homo sapiens); test: Lactate dehydrogenase; type: biochemical; details: read-out: LDHA mean inhibitory % ± SD
Report the value in % with no unit label.

N#Cc1c(N)sc2c1CCCC2 = 23.1
CCOC(=O)Nc1sc2c(c1C#N)CCC(c1ccccc1)C2 (stereo not shown) = 19.3
CCOC(=O)Nc1sc2c(c1C(=O)OCC)CCC(c1ccccc1)C2 (stereo not shown) = 28.8

Query: Look at this compound and give its reported inhibition at 100 µg/mL. CCOC(=O)c1c(NC(=O)c2cccs2)sc2c1CCC(c1ccccc1)C2 (stereo not shown)
Reply: 18.4

Query: Bench note: what inhibition at 100 µg/mL did CN(C)C=Nc1sc2c(c1C#N)CCC(c1ccccc1)C2 (stereo not shown) show?
Reply: 32.6

Query: # inhibition at 100 µg/mL lookup, item CCOC(=O)c1c(NC(=O)CN2CCOCC2)sc2c1CCC(c1ccccc1)C2 (stereo not shown)
Reply: 30.8

Query: Quick one: inhibition at 100 µg/mL for N#Cc1c(N)sc2c1CCC(c1ccccc1)C2 (stereo not shown) ?
Reply: 74.1

Query: Fill in the blank: the reported inhibition at 100 µg/mL of N#Cc1c(N2C(=O)CCC2=O)sc2c1CCC(c1ccccc1)C2 (stereo not shown) is ____.
Reply: 48.8

Query: Which inhibition at 100 µg/mL reading was recorded for the compound CCOC(=O)c1c(N)sc2c1CCC(c1ccccc1)C2 (stereo not shown) ?
Reply: 19.2

Query: Tell me the measured inhibition at 100 µg/mL of COc1ccc(C=Nc2sc3c(c2C#N)CCCC3)cc1O , please.
Reply: 29.6

====

assay: Cytotoxicity assay; format: cell-based, human; settings: human, HCT-116 cells (colorectal cancer cell line)
parameter: viability at 24 h, 100 μg/mL (%)
Lab book: enter the figure in %, no units written.

Consider the reported viability at 24 h, 100 μg/mL for these compounds:
N#Cc1c(N2C(=O)CCC2=O)sc2c1CCC(c1ccccc1)C2 (centres unmarked) [compound 7] = 47.2
CN(C)C=Nc1sc2c(c1C#N)CCC(c1ccccc1)C2 (centres unmarked) [compound 9] = 69
N#Cc1c(N)sc2c1CCC(c1ccccc1)C2 (centres unmarked) [compound 1b] = 53.5
CCOC(=O)Nc1sc2c(c1C#N)CCC(c1ccccc1)C2 (centres unmarked) [compound 3b] = 28

Moving on to the next compound.
Query: Consider the compound shown here: COc1ccc(C=Nc2sc3c(c2C#N)CCCC3)cc1O [compound 11] What is its recorded viability at 24 h, 100 μg/mL?
Reply: 60.5

====

experiment: Cytotoxicity assay; assay type: cell-based, human; details: human, LoVo cells (colorectal cancer cell line)
Decision: viability at 24 h, 100 μg/mL beneath 60% gives class 1; viability at 24 h, 100 μg/mL meeting or exceeding 60% gives class 0.

// known answers, use as guide
CCOC(=O)Nc1sc2c(c1C#N)CCC(c1ccccc1)C2 (centres unmarked) = class 1
CN(C)C=Nc1sc2c(c1C#N)CCC(c1ccccc1)C2 (centres unmarked) = class 0
N#Cc1c(N)sc2c1CCC(c1ccccc1)C2 (centres unmarked) = class 1
COc1ccc(C=Nc2sc3c(c2C#N)CCCC3)cc1O = class 0

Kindly consider the entry below.
Query: Lab note: confirm whether the reported viability at 24 h, 100 μg/mL for this compound is below 60%, equality not counting. compound: N#Cc1c(N2C(=O)CCC2=O)sc2c1CCC(c1ccccc1)C2 (centres unmarked)
Reply: class 1

====

tested on: E. coli (ATCC 25922); test: Antibacterial assay; assay type: cell-based; conditions: Escherichia coli, ATCC25922, read-out: E. coli mean IC50 (μM)
T if IC50 is below 90 µM. F if not; exact matches included in F.

Past entries and their recorded results:
CCOC(=O)c1c(N)sc2c1CCC(c1ccccc1)C2 (stereo not drawn) = T
N#Cc1c(N)sc2c1CCCC2 = F
CN(C)C=Nc1sc2c(c1C#N)CCC(c1ccccc1)C2 (stereo not drawn) = F
N#Cc1c(N2C(=O)CCC2=O)sc2c1CCC(c1ccccc1)C2 (stereo not drawn) = T

Query: Is 90 µM strictly greater than the compound's reported IC50? compound: COc1ccc(C=Nc2sc3c(c2C#N)CCCC3)cc1O
Reply: F

Query: Lab log: compare recorded IC50 with 90 µM; is it strictly lower for CCOC(=O)c1c(NC(=O)CN2CCOCC2)sc2c1CCC(c1ccccc1)C2 (stereo not drawn) ?
Reply: T

Query: Would you kindly verify if IC50 of CC1(C)S[C@@H]2[C@H](NC(=O)[C@H](N)c3ccccc3)C(=O)N2[C@H]1C(=O)O [ampicillin, reference compound] is strictly less than 90 µM?
Reply: T

Query: Regarding CCOC(=O)Nc1sc2c(c1C(=O)OCC)CCC(c1ccccc1)C2 (stereo not drawn) , kindly confirm whether its IC50 is beneath 90 µM.
Reply: T

====

biological target: purified recombinant human LDHA protein (Homo sapiens); assay: Lactate dehydrogenase; format: biochemical; conditions: LDHA IC50 (μM)
# reported IC50; entries follow
Note: unit µM is implicit; provide only the numeric part.

Known results for molecules:
N#Cc1c(N2C(=O)CCC2=O)sc2c1CCC(c1ccccc1)C2 (stereo not drawn) = 276
CCOC(=O)Nc1sc2c(c1C#N)CCC(c1ccccc1)C2 (stereo not drawn) = 892

Query: So what does the record say about IC50 for N#Cc1c(N)sc2c1CCC(c1ccccc1)C2 (stereo not drawn) ?
Reply: 252

====

// values below are reported inhibition at 100 µg/mL
biological target: Pyruvate Dehydrogenase Kinase-1 (PDK-1) (Homo sapiens); assay: Pyruvate dehydrogenase kinase; type: biochemical; conditions: read-out: PDK-1 mean inhibitory % ± SD
Could you give me the number in %? Just the number is fine.

Below, each entry is followed by its recorded inhibition at 100 µg/mL result.
CCOC(=O)Nc1sc2c(c1C#N)CCC(c1ccccc1)C2 (stereo not shown) = 51.5
CCOC(=O)Nc1sc2c(c1C(=O)OCC)CCC(c1ccccc1)C2 (stereo not shown) = 21.5
N#Cc1c(N2C(=O)CCC2=O)sc2c1CCC(c1ccccc1)C2 (stereo not shown) = 35.9

Next item in the queue.
Query: Item under review: CCOC(=O)c1c(N)sc2c1CCC(c1ccccc1)C2 (stereo not shown) . Reported inhibition at 100 µg/mL?
Reply: 12.3

Reference source: paper PMC8567357
